- target-system: Neu5Ac(a2-3)Gal(b1-4)[Fuc(a1-3)]GlcNAc(b1-6)[Gal(b1-3)]GalNAc
- protocol-details: glycan array binding signal (z-score within array); higher = stronger binding
- assay-setup: glycan notation: IUPAC condensed, linker removed
About 410 targets per protein were measured; listed, in parts, are those with the strongest signals and a random draw of the rest.
outcome-measure: glycan array binding signal (z-score)
One number for each entry.

Please give the measured glycan array binding signal (z-score) for this binder: AFL5 (Aspergillus fumigatus), Q4WB00 (protein) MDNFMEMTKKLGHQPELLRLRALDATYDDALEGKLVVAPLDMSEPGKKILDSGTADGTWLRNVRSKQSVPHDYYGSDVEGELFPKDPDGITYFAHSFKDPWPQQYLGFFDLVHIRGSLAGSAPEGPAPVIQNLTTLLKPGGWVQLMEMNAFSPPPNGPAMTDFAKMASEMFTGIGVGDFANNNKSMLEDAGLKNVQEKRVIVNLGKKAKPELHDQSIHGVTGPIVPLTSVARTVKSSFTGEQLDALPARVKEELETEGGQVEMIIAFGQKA
0.716
